The values you see were collected from patent US20260166162A1.

System: human pancreatic β-cells
ASSAY EXPLANATION: Insulin secretion from human islet β cells (ELISA of supernatant)
Assay type: cell-based
EXPERIMENTAL CONDITIONS: 10 nM, 6 h
REPORTED PROPERTY: Insulin (ng/mL)
// units = ng/mL; emit number, no label

Checklist item: Insulin tested on human pancreatic β-cells, entry CCCCCC(=O)OC(C)C(N)C(=O)O (stereo not drawn) [Thr-n-hexanoic acid] , value?
0.47

Consider next the molecule CCCCCCCCCC(=O)NCCCCC(N)C(=O)O (stereo not drawn) [Lys-n-decanoic acid] in the same way.
0.56

Consider next the molecule CCCCCCCCCCCCCCCCCCCC(=O)OC(C)C(N)C(=O)O (stereo not drawn) [Thr-arachidic acid] in the same way.
0.43

Consider next the molecule CCCCCCCCCCCCCCCCCC(=O)OCC(N)C(=O)O (stereo not drawn) [Ser-stearic acid] in the same way.
0.41

Consider next the molecule CCCC(=O)OCC(N)C(=O)O (stereo not drawn) [Ser-n-butyric acid] in the same way.
0.49

Consider next the molecule NC(CCCCNC(=O)CCCCCCCCCCCCCCCCCCC(=O)O)C(=O)O (stereo not drawn) [Lys-eicosanedioic acid] in the same way.
0.42
